This listing pairs binders with measured apparent Kd (screen).
Target: T1, TNFR1 (Homo sapiens, UniProt P19438)
T1 chain: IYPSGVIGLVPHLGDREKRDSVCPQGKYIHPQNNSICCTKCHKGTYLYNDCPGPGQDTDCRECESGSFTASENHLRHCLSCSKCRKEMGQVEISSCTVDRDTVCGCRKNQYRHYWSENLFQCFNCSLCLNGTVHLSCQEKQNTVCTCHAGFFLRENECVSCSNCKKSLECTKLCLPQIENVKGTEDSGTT
Assay: yeast display SC50
Your answer is read as nM, so omit the unit and give the number.

As a guide, the following entries are already answered.
| Binder | Reported Result |
| --- | --- |
| K29F (designed binder) SMEEEVEKAAKEYEKKKKEAIEKHLEKLFAKDKEAAERFLKELEEAAKEYAKDEAKTMSEEEAKRRAKKYKEKVLLSELSEEEQKEIKEAEEKLVRTILKYVEEAAK | 1.05 |
| A55N (designed binder) SMEEEVEKAAKEYEKKKKEAIEKHLEKLKAKDKEAAERFLKELEEAAKEYAKDENKTMSEEEAKRRAKKYKEKVLLSELSEEEQKEIKEAEEKLVRTILKYVEEAAK | 11.4 |

Recorded apparent Kd (screen) of E14M (designed binder) SMEEEVEKAAKEYMKKKKEAIEKHLEKLKAKDKEAAERFLKELEEAAKEYAKDEAKTMSEEEAKRRAKKYKEKVLLSELSEEEQKEIKEAEEKLVRTILKYVEEAAK , please. 12.5

Recorded apparent Kd (screen) of E42R (designed binder) SMEEEVEKAAKEYEKKKKEAIEKHLEKLKAKDKEAAERFLKRLEEAAKEYAKDEAKTMSEEEAKRRAKKYKEKVLLSELSEEEQKEIKEAEEKLVRTILKYVEEAAK , please. 7.78
